Cited source: the supplement of paper PMC9254222

I'd appreciate it if you could supply Renilla luciferase signal values for the items below.
Tested on: HEK293T (UBE3A T485A transfected, BAR Wnt reporter)
Assay: Renilla luciferase signal (cell health) relative to plate median (fold (linear ratio)); higher = higher Renilla signal
Details: concentration: 1 uM; 24 h
The full ranking holds about 1,100 compounds; the median of “Renilla luciferase signal (cell health) relative to plate median” is about 0.97, and the highest 2% start at about 1.6. The sample as a whole holds a higher share of the highest values than the screen did.
Give only the figure.

Inquiry: Form field: reported Renilla luciferase signal of CCOP(=S)(Oc1cnc(C(C)(C)C)nc1)OC(C)C (centres undefined)
Reply text: 1.16

Inquiry: Form field: reported Renilla luciferase signal of "C1=Cc2cccc3cccc1c23"
Reply text: 0.666

Inquiry: Form field: reported Renilla luciferase signal of COc1cccc(C(=O)NN(C(=O)c2cc(C)cc(C)c2)C(C)(C)C)c1C [Methoxyfenozide]
Reply text: 1.05

Inquiry: Form field: reported Renilla luciferase signal of "O=C(O)c1cc(Oc2ccc(C(F)(F)F)cc2Cl)ccc1[N+](=O)[O-]"
Reply text: 0.942

Inquiry: Form field: reported Renilla luciferase signal of [OH][Sn]([c]1ccccc1)([c]1ccccc1)[c]1ccccc1 [Triphenyltin hydroxide]
Reply text: 0.135

Inquiry: Form field: reported Renilla luciferase signal of "CC(C)Oc1cccc(NC(=O)c2ccccc2C(F)(F)F)c1"
Reply text: 0.934

Inquiry: Form field: reported Renilla luciferase signal of "Clc1cccc(Cl)c1"
Reply text: 1.06

Inquiry: Form field: reported Renilla luciferase signal of [Cl-].[Cl-].[Hg+2] [Mercuric chloride]
Reply text: 0.402

Inquiry: Form field: reported Renilla luciferase signal of O=C(O)CNCP(=O)(O)O [Glyphosate]
Reply text: 0.905

Inquiry: Form field: reported Renilla luciferase signal of CCSC(=O)N(CC)C1CCCCC1 [Cycloate]
Reply text: 0.924

Inquiry: Form field: reported Renilla luciferase signal of C[N+]1(C)CCCCC1.[Cl-] [Mepiquat chloride]
Reply text: 1.06

Inquiry: Form field: reported Renilla luciferase signal of "Nc1ccc(Cc2ccc(N)cc2)cc1"
Reply text: 0.812

Inquiry: Form field: reported Renilla luciferase signal of "O=[N+]([O-])c1ccc(Cl)cc1"
Reply text: 0.976

Inquiry: Form field: reported Renilla luciferase signal of C=CC1(C)OC(=O)N(c2cc(Cl)cc(Cl)c2)C1=O (centres undefined)
Reply text: 1.09

Inquiry: Form field: reported Renilla luciferase signal of CC(C)=CC1C(C(=O)OCc2coc(Cc3ccccc3)c2)C1(C)C (centres undefined)
Reply text: 0.974

Inquiry: Form field: reported Renilla luciferase signal of "O=C(NC(=O)c1c(F)cccc1F)Nc1cc(Cl)c(OC(F)(F)C(F)F)c(Cl)c1"
Reply text: 0.604

Inquiry: Form field: reported Renilla luciferase signal of CCCCCOC(=O)c1ccccc1C(=O)OCCCCC [Dipentyl phthalate]
Reply text: 0.861

Inquiry: Form field: reported Renilla luciferase signal of "O=C(O)C1(c2ccc3c(c2)OC[C@H](Cc2ccc(-c4ccccc4)cc2)[C@H]3O)CCCC1"
Reply text: 0.823

Inquiry: Form field: reported Renilla luciferase signal of "COc1cc(C=O)cc2c1[C@H](COC(N)=O)[C@]1(OC(C)=O)ON2C[C@H]2[C@@H]1N2C(C)=O"
Reply text: 0.0435

Inquiry: Form field: reported Renilla luciferase signal of "CCNc1nc(Cl)nc(NC(C)(C)C)n1"
Reply text: 1.02

Inquiry: Form field: reported Renilla luciferase signal of CC(Oc1cccc(Cl)c1)C(=O)O (centres undefined)
Reply text: 0.814

Inquiry: Form field: reported Renilla luciferase signal of "Cc1ccc([N+](=O)[O-])cc1N"
Reply text: 1.21

Inquiry: Form field: reported Renilla luciferase signal of CC1COC(Cn2cncn2)(c2ccc(Oc3ccc(Cl)cc3)cc2Cl)O1 (centres undefined)
Reply text: 0.923

Inquiry: Form field: reported Renilla luciferase signal of ClC1=C(Cl)C2(Cl)C3C4CC(C5OC45)C3C1(Cl)C2(Cl)Cl (centres undefined)
Reply text: 0.977

Inquiry: Form field: reported Renilla luciferase signal of "c1ccc(OP(Oc2ccccc2)Oc2ccccc2)cc1"
Reply text: 1.18

Inquiry: Form field: reported Renilla luciferase signal of CC(Cc1ccc(OCC(=O)O)cc1)NCC(O)c1csc(C(F)(F)F)n1 (centres undefined)
Reply text: 0.849

Inquiry: Form field: reported Renilla luciferase signal of "Clc1cc(Cl)c(Cl)cc1Cl"
Reply text: 0.572

Inquiry: Form field: reported Renilla luciferase signal of "Cc1cccc(N)c1N"
Reply text: 0.75

Inquiry: Form field: reported Renilla luciferase signal of CCOC(=O)C(O)(c1ccc(Cl)cc1)c1ccc(Cl)cc1 [Chlorobenzilate]
Reply text: 0.837

Inquiry: Form field: reported Renilla luciferase signal of "CCN(CC)c1ccccc1"
Reply text: 1.06

Inquiry: Form field: reported Renilla luciferase signal of "C1=CCCC=CCCC=CCC1"
Reply text: 0.775

Inquiry: Form field: reported Renilla luciferase signal of ClC(Cl)(Cl)c1ccccc1 [Benzotrichloride]
Reply text: 0.9

Inquiry: Form field: reported Renilla luciferase signal of C[C@@H]1C[C@@H]([C@H](O)CC2CC(=O)NC(=O)C2)C(=O)[C@@H](C)C1 [Cycloheximide]
Reply text: 0.0448

Inquiry: Form field: reported Renilla luciferase signal of COC(=O)C(C)Oc1ccc(Oc2ccc(Cl)cc2Cl)cc1 (centres undefined)
Reply text: 0.732

Inquiry: Form field: reported Renilla luciferase signal of Oc1cccc2cccnc12 [8-Hydroxyquinoline]
Reply text: 0.797

Inquiry: Form field: reported Renilla luciferase signal of O=C([O-])C(F)(F)C(F)(F)C(F)(F)C(F)(F)C(F)(F)C(F)(F)C(F)(F)F.[NH4+] [PFOA, ammonium salt]
Reply text: 0.971

Inquiry: Form field: reported Renilla luciferase signal of "Fc1ccc(Oc2ccnc3cc(Cl)cc(Cl)c23)cc1"
Reply text: 0.93

Inquiry: Form field: reported Renilla luciferase signal of CCSC(=O)N1CCCCCC1 [Molinate]
Reply text: 0.905

Inquiry: Form field: reported Renilla luciferase signal of "CCOC(=O)COc1cc(-c2nn(C)c(OC(F)F)c2Cl)c(F)cc1Cl"
Reply text: 0.92

----------
Tested on: HEK293T (UBE3A T485A transfected, BAR Wnt reporter)
Assay: Renilla luciferase signal (cell health) relative to plate median (fold (linear ratio)); higher = higher Renilla signal
Conditions: concentration: 0.1 uM; 24 h
In all, about 1,100 compounds were measured (“Renilla luciferase signal (cell health) relative to plate median”: median about 0.97, highest 2% from about 1.6 on). The full list was thinned out, with the highest values kept by preference.
I'd appreciate it if you could supply Renilla luciferase signal values for the items below.
Give only the figure.

Inquiry: Form field: reported Renilla luciferase signal of "O=C1c2ccccc2C(=O)N1SC(Cl)(Cl)Cl"
Reply text: 1.03

Inquiry: Form field: reported Renilla luciferase signal of Cc1ccc(N=C=O)cc1N=C=O [Toluene-2,4-diisocyanate]
Reply text: 0.891

Inquiry: Form field: reported Renilla luciferase signal of "Cc1cc(O)ccc1Cl"
Reply text: 0.999

Inquiry: Form field: reported Renilla luciferase signal of CNC(=O)CSP(=S)(OC)OC [Dimethoate]
Reply text: 0.985

Inquiry: Form field: reported Renilla luciferase signal of "CCCSP(=O)(OCC)SCCC"
Reply text: 0.976

Inquiry: Form field: reported Renilla luciferase signal of "C[Si](Cn1cncn1)(c1ccc(F)cc1)c1ccc(F)cc1"
Reply text: 1.08

Inquiry: Form field: reported Renilla luciferase signal of "CCCOC/C(=N\c1ccc(Cl)cc1C(F)(F)F)n1ccnc1"
Reply text: 0.937

Inquiry: Form field: reported Renilla luciferase signal of "CCOc1ccc(C(C)(C)COCc2cccc(Oc3ccccc3)c2)cc1"
Reply text: 1.01

Inquiry: Form field: reported Renilla luciferase signal of "CCNC(=O)NC(=O)/C(C#N)=N/OC"
Reply text: 1.16

Inquiry: Form field: reported Renilla luciferase signal of "O=C(O)c1cc(Oc2ccc(C(F)(F)F)cc2Cl)ccc1[N+](=O)[O-]"
Reply text: 1.25

Inquiry: Form field: reported Renilla luciferase signal of CCCCC(CC)COC(=O)c1ccc(C(=O)OCC(CC)CCCC)c(C(=O)OCC(CC)CCCC)c1 (stereo not drawn) [Tris(2-ethylhexyl) trimellitate]
Reply text: 0.879

Inquiry: Form field: reported Renilla luciferase signal of "Cc1cccc(N)c1N"
Reply text: 0.728

Inquiry: Form field: reported Renilla luciferase signal of "O=[N+]([O-])c1ccccc1"
Reply text: 0.931

Inquiry: Form field: reported Renilla luciferase signal of "Cc1cccc(C)c1N"
Reply text: 0.815

Inquiry: Form field: reported Renilla luciferase signal of "CC(C)(C)c1ccc(CSc2cnn(C(C)(C)C)c(=O)c2Cl)cc1"
Reply text: 0.947

Inquiry: Form field: reported Renilla luciferase signal of "Clc1cccc(Cl)c1"
Reply text: 0.976

Inquiry: Form field: reported Renilla luciferase signal of CCC(=O)C(CC(C)N(C)C)(c1ccccc1)c1ccccc1.Cl (stereo not drawn) [Methadone hydrochloride]
Reply text: 1.01

Inquiry: Form field: reported Renilla luciferase signal of "O=C(O)c1nc(Cl)ccc1Cl"
Reply text: 0.828

Inquiry: Form field: reported Renilla luciferase signal of CCOC(=O)C(C)OC(=O)c1cc(Oc2ccc(C(F)(F)F)cc2Cl)ccc1[N+](=O)[O-] (stereo not drawn)
Reply text: 0.611

Inquiry: Form field: reported Renilla luciferase signal of "O=S(=O)(O)C(F)(F)C(F)(F)C(F)(F)C(F)(F)C(F)(F)C(F)(F)C(F)(F)C(F)(F)F"
Reply text: 0.956

Inquiry: Form field: reported Renilla luciferase signal of OC(c1ccc(Cl)cc1)(c1cncnc1)c1ccccc1Cl (stereo not drawn)
Reply text: 0.875

Inquiry: Form field: reported Renilla luciferase signal of "CCOP(=S)(OCC)SCSP(=S)(OCC)OCC"
Reply text: 0.929

Inquiry: Form field: reported Renilla luciferase signal of O=C(O)CNCP(=O)(O)O [Glyphosate]
Reply text: 0.874

Inquiry: Form field: reported Renilla luciferase signal of O=C(NC(=O)c1c(F)cccc1F)Nc1ccc(OC(F)(F)C(F)OC(F)(F)F)c(Cl)c1 (stereo not drawn)
Reply text: 0.982

Inquiry: Form field: reported Renilla luciferase signal of "CNc1cnn(-c2cccc(C(F)(F)F)c2)c(=O)c1Cl"
Reply text: 0.78

Inquiry: Form field: reported Renilla luciferase signal of "CCC(C)(C)c1ccc(O)c(C(C)(C)CC)c1"
Reply text: 1.05

Inquiry: Form field: reported Renilla luciferase signal of COc1cc(-c2ccc(N)c(OC)c2)ccc1N.Cl.Cl [3,3'-Dimethoxybenzidine dihydrochloride]
Reply text: 0.847

Inquiry: Form field: reported Renilla luciferase signal of CCC(C)(NC(=O)c1cc(Cl)c(C)c(Cl)c1)C(=O)CCl (stereo not drawn) [Zoxamide]
Reply text: 1.05

Inquiry: Form field: reported Renilla luciferase signal of "COP(=S)(OC)SCN1C(=O)c2ccccc2C1=O"
Reply text: 0.82

Inquiry: Form field: reported Renilla luciferase signal of CC(C)[C@H](C(=O)O[C@H](C#N)c1cccc(Oc2ccccc2)c1)c1ccc(Cl)cc1 [Esfenvalerate]
Reply text: 0.969

Inquiry: Form field: reported Renilla luciferase signal of "COCCOCCO"
Reply text: 1.01

Inquiry: Form field: reported Renilla luciferase signal of CCOC(=O)C(O)(c1ccc(Cl)cc1)c1ccc(Cl)cc1 [Chlorobenzilate]
Reply text: 0.927

Inquiry: Form field: reported Renilla luciferase signal of "COP(=S)(OC)Oc1nc(Cl)c(Cl)cc1Cl"
Reply text: 1.18

Inquiry: Form field: reported Renilla luciferase signal of "CCN(CC)N=O"
Reply text: 1.02

Inquiry: Form field: reported Renilla luciferase signal of "CCC(C)(C)c1ccc(O)cc1"
Reply text: 0.874

Inquiry: Form field: reported Renilla luciferase signal of "Cc1ccn2nc(S(=O)(=O)Nc3c(F)cccc3F)nc2n1"
Reply text: 1.07

Inquiry: Form field: reported Renilla luciferase signal of "Cc1ccc(N)cc1"
Reply text: 0.71

Inquiry: Form field: reported Renilla luciferase signal of CCOP(=O)(SC(C)CC)N1CCSC1=O (stereo not drawn) [Fosthiazate]
Reply text: 1.07
